tested-on: T1, glucose-dependent insulinotropic peptide (gastric inhibitory polypeptide) receptor (GIPR), primary cAMP assay (human, UniProt P48546 22-466)
T1 sequence (looked up): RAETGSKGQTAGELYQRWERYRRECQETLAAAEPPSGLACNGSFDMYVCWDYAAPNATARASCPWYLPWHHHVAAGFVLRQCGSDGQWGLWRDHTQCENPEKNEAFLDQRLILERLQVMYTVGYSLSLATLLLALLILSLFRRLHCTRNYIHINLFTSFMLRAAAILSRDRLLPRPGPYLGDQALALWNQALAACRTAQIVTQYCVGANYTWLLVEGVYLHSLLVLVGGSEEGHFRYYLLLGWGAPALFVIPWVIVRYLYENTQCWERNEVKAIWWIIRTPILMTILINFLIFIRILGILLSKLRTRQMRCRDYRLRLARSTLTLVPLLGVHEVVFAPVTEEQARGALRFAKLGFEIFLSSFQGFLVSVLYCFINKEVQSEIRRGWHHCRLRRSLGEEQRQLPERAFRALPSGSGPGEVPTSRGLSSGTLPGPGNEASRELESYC
assay-notes: cell-based or functional assay
Starred links: 1 amine or outer side, 2 acyl side, 3 side chain; linkers in the order of their positions; H or OH if unused. Non-standard residues stand in square brackets, D forms with d. Groups on a side chain read outwards from the residue. Primed or numbered codes have the meaning given here. No end group written: not given here. *: point of attachment. γGlu = O=C(O)[C@H](CCC(=O)[*:2])N[*:1]; Palmitoyl = CCCCCCCCCCCCCCCC(=O)*; αMeF = C[C@](N)(Cc1ccccc1)C(=O)O; αMeK = C[C@](N)(CCCCN)C(=O)O; Lauroyl = CCCCCCCCCCCC(=O)*; αMeS = C[C@](N)(CO)C(=O)O; PEG2′ = not defined here; Aib = CC(C)(N)C(=O)O
Please respond with reported Primary assay EC50 (cAMP), n2 for every item in the list.
Field note: include the unit after the figure.

See these solved cases before continuing.
Notebook: H[Aib]EGS[αMeF]TSDVSK([PEG2′-PEG2′-γGlu-Lauroyl])FLEGEAA[αMeK]EFIK([PEG2′-PEG2′-γGlu-Lauroyl])FVVEGG-NH2 [SEQ ID NO: 248] , Primary assay EC50 (cAMP), n2 read as 22.4 nM

# Primary assay EC50 (cAMP), n2 (binder: H[Aib]EGS[αMeF]TSDV[αMeS]SYK([PEG2′-PEG2′-γGlu-Palmitoyl])EGEAA[αMeK]EFIK([PEG2′-PEG2′-γGlu-Palmitoyl])WVVEGG-NH2 [SEQ ID NO: 271] ) is 21.4 nM

Entry H[Aib]EGS[αMeF]TSDV[αMeS]SYK([PEG2′-PEG2′-γGlu-Lauroyl])EGEAA[αMeK]EFIK([PEG2′-PEG2′-γGlu-Lauroyl])WVVEGG-NH2 [SEQ ID NO: 268] — recorded Primary assay EC50 (cAMP), n2 = 22.2 nM

Let's switch to this binder now.
Field Primary assay EC50 (cAMP), n2 (entry H[Aib]EGS[αMeF]TSDV[αMeS]SK([PEG2′-PEG2′-γGlu-Palmitoyl])LEGEAA[αMeK]EFIAWK([PEG2′-PEG2′-γGlu-Palmitoyl])VEGG-NH2 [SEQ ID NO: 267] ) reads 21.7 nM
